Sourced from BindingDB's records for doi:10.1021/jm980560x

target: Sigma-2 receptor (Rattus norvegicus); experiment: Binding affinity against Sigma-2 receptor in rat liver membranes using [3H]DTG (DuPont-NEN) as radioligand in the presence of (+)-pentazocine (100 nM)
pKi: −log10 of the molar value.

{"mol_smiles": "O[C@@H]1CCN(Cc2cccc(I)c2)C[C@H]1N1CCC(c2ccccc2)CC1", "assay_target": "Sigma-2 receptor (Rattus norvegicus)", "pKi": 6.72}
{"mol_smiles": "O[C@@H]1C[C@H]2CCCN(C/C=C/I)[C@@H]2C[C@H]1N1CCC(c2ccccc2)CC1", "assay_target": "Sigma-2 receptor (Rattus norvegicus)", "pKi": 6.44}
